Experiment: Oral bioavailability in male Sprague-Dawley rat at 20 mg/kg measured by LC-MS/MS analysis
Format: ADME, organism-based
Conditions: in vivo
measurementName: bioavailability (%)

[I] Cc1ccc(C(=O)Nc2cc(-c3cnn(C)c3)cc(C(F)(F)F)c2)cc1Nc1cc(-c2cccnc2)ccn1
[II] Cc1cn(-c2cc(NC(=O)c3ccc(C)c(Nc4nccc(-c5cccnc5)n4)c3)cc(C(F)(F)F)c2)cn1
Looking at I and II , which one comes out lower in bioavailability terms? Mark your selection by writing its label.
II
(II: 27.1%, I: 47.6%)

---

Assay: MRT (0 to infinity) in male Sprague-Dawley rat at 5 mg/kg, iv measured by LC-MS/MS analysis
Assay type: ADME, organism-based
Conditions: in vivo
measurementName: MRT inf (h)
Respond numerically; units are h and should not be typed.

Data request, read-out MRT inf, for `Cc1ccc(C(=O)Nc2cc(-c3cnn(C)c3)cc(C(F)(F)F)c2)cc1Nc1cc(-c2cccnc2)ccn1`
5.29

---

Assay: Cytotoxicity against HEK293 cells incubated for 48 hrs and measured by MTT assay
Type: toxicity, cell-based
Conditions: human
We begin with a simple list: items and their reported IC50 at 48 h.

> print(dat)
                                        smi  measurementname  obsvalue
1  Cc1ccc(C(=O)Nc2cc(-c3cnn(C)c3)cc(C(F)(F)F)c2)cc1Nc1cc(-c2cccnc2)ccn1     IC50 at 48 h   > 80 µM
2  Cc1cn(-c2cc(NC(=O)c3ccc(C)c(Nc4cc(-c5cccnc5)ccn4)c3)cc(C(F)(F)F)c2)cn1     IC50 at 48 h   > 80 µM

The record that follows has no IC50 at 48 h shown yet.
Data request, read-out IC50 at 48 h, for `Cc1ccc(C(=O)Nc2cc(-c3cnn(C)c3)cc(C(F)(F)F)c2)cc1Nc1cc(-c2cncnc2)ccn1`
> 80 µM

---

Assay: Cytotoxicity against human SH-SY5Y cells incubated for 48 hrs and measured by MTT assay
Assay type: toxicity, cell-based
We begin with a simple list: items and their reported IC50 at 48 h.

Take a look at these entries with their results.
> print(dat)
                                        smi  obsvalue
1  Cc1ccc(C(=O)Nc2cc(-c3cnn(C)c3)cc(C(F)(F)F)c2)cc1Nc1cc(-c2cccnc2)ccn1   > 80 µM
2  Cc1ccc(C(=O)Nc2cc(-c3cnn(C)c3)cc(C(F)(F)F)c2)cc1Nc1cc(-c2cncnc2)ccn1   > 80 µM

The record that follows has no IC50 at 48 h shown yet.
Data request, read-out IC50 at 48 h, for `Cc1cn(-c2cc(NC(=O)c3ccc(C)c(Nc4cc(-c5cccnc5)ccn4)c3)cc(C(F)(F)F)c2)cn1`
> 80 µM

---

Experiment: Cytotoxicity against rat H9c2 cells incubated for 48 hrs and measured by MTT assay
Format: toxicity, cell-based
We begin with a simple list: items and their reported IC50 at 48 h.

Take a look at these entries with their results.
> print(dat)
                                        smi  obsvalue
1  Cc1ccc(C(=O)Nc2cc(-c3cnn(C)c3)cc(C(F)(F)F)c2)cc1Nc1cc(-c2cncnc2)ccn1   > 80 µM
2  Cc1ccc(C(=O)Nc2cc(-c3cnn(C)c3)cc(C(F)(F)F)c2)cc1Nc1cc(-c2cccnc2)ccn1   > 80 µM

The record that follows has no IC50 at 48 h shown yet.
Data request, read-out IC50 at 48 h, for `Cc1cn(-c2cc(NC(=O)c3ccc(C)c(Nc4cc(-c5cccnc5)ccn4)c3)cc(C(F)(F)F)c2)cn1`
> 80 µM
